System: SR
Assay: NCI tumour cell line growth inhibition, 48 h
Calls of active or inactive are those of the source. Rule as the data show it: active = GI50 up to about 1.1 µM and inactive = higher.
Just give me one of these, please: 1 (yes) for active, 0 (no) for inactive

Entry CNc1ccc2ncccc2c1[N+](=O)[O-] : call = ?
0 (no)

Entry N#CC1C(=S)NC(c2ccccc2)=CC12CCCCC2 (stereo unspecified) : call = ?
0 (no)

Entry Cc1ccc(S(=O)(=O)N2C[C@@H]3CC[C@]4(CO[Si](C)(C)C(C)(C)C)N[C@@H](c5ccccc5)[C@H]2[C@H]34)cc1 : call = ?
0 (no)

Entry C/C(=C/CC[C@]1(CO)CC[C@]2(CO)[C@H](CC[C@@H]3[C@@]4(C)CC[C@H](OC5OCC(O)C(O)C5OC5OC(CO)C(O)C(O)C5O)C(C)(C)[C@@H]4CC[C@]32C)[C@H]1O)CO (stereo partly specified) : call = ?
0 (no)

Entry CN(C)CCCNC(=O)c1c(O)c2ccccc2n(C)c1=O : call = ?
0 (no)

Entry c1ccc2c(c1)N=c1cc3c(cc1N2)=NC12CCCCC1CC1=C(CCCC1)N32 (stereo unspecified) : call = ?
1 (yes)

Entry Nc1ncc(C=O)c(NCC2(CO)CCC2)n1 : call = ?
0 (no)

Entry COC1C(=O)CCC2(CO2)C1(O)C1(C)OC1CC=C(C)C (stereo unspecified) : call = ?
0 (no)

Entry COC1=C(OC)C(=O)C(Cc2c(Cl)nc3sccn23)=C(C)C1=O : call = ?
0 (no)

Entry CCCCCCCCCCC/C=C(/C(=O)CCCO[Si](C)(C)C(C)(C)C)C(=O)OC : call = ?
0 (no)

Entry COc1ccc(C2CC(C)(O)Oc3cc4c(cc32)OCO4)cc1 (stereo unspecified) : call = ?
0 (no)

Entry O=Cc1ccc(-c2ccc(-c3ccc(C=O)s3)o2)s1 : call = ?
0 (no)

Entry O=C(CNC(=O)OCc1ccccc1)NCCCCC(NC(=O)OCc1ccccc1)C(=O)NC(CCCCNC(=O)CNC(=O)OCc1ccccc1)C(=O)OCc1ccccc1 (stereo unspecified) : call = ?
0 (no)

Entry CC1=NOC(=O)/C1=C/c1ccc([N+](=O)[O-])cc1 : call = ?
0 (no)

Entry COc1ccc(-c2cc(-c3cc(Cl)cc(Br)c3O)nc(O)n2)cc1 : call = ?
0 (no)

Entry O=S1OC2(c3ccccc3-c3ccccc32)c2ccccc21 (stereo unspecified) : call = ?
0 (no)

Entry CNc1ccc(/C=C2\C=Cc3ccccc32)cc1 : call = ?
0 (no)

Entry NC(=S)NC/C=C/Cl : call = ?
0 (no)

Entry C[n+]1c2ccccc2c(NC(CCCNC(=N)N)C(=O)O)c2ccccc21 (stereo unspecified) : call = ?
0 (no)

Entry CCOc1cc(NC(C)=O)ccc1C(=O)NNS(=O)(=O)c1ccc(Cl)cc1Cl : call = ?
0 (no)

Entry Clc1cc(Cl)ncn1 : call = ?
0 (no)

Entry CSc1sc(=S)sc1C(=O)N(C)c1ccccc1 : call = ?
0 (no)

Entry C[n+]1cn(-c2ccc([N+](=O)[O-])cn2)c2ccccc21 : call = ?
0 (no)

Entry COc1cc(C2c3cc4c(cc3[C@@H](NC3CCN(Cc5ccccc5)CC3)C3COC(=O)[C@H]23)OCO4)cc(OC)c1O (stereo partly specified) : call = ?
1 (yes)

Entry CC(=O)OC[C@@]12Cc3ccc(C)c(O)c3[C@]1(C)[C@@H](OC(C)=O)[C@]1(O)[C@H]([C@@H](OC(=O)c3ccccc3)[C@@H](C)[C@H]1OC(C)=O)[C@H]2OC(C)=O : call = ?
0 (no)

Entry CCN(CC)C(=O)CCn1ccc(=O)[nH]c1=O : call = ?
0 (no)

Entry OC(c1ccc(F)cc1)C(F)(F)c1nc2ccccc2o1 (stereo unspecified) : call = ?
0 (no)

Entry C[C@@H]1S[C@H](c2c(Cl)cccc2Cl)N2Cc3ccccc3N=C12 : call = ?
0 (no)

Entry CP(C)(=S)P(C)(C)=S : call = ?
0 (no)

Entry O=C1c2ccccc2C2(c3ccc(Cl)cc3)NCc3ccccc3CN12 (stereo unspecified) : call = ?
0 (no)

Entry O=C(O)c1nc2ccc(Cl)cc2[nH]c1=O : call = ?
0 (no)
